Reported melting point values for the following molecules.

Example molecules with recorded melting point:
| molecule | melting point |
| --- | --- |
| CCc1cn(C2CC(O)C(CNCC(C)Oc3ccc(Cl)cc3Cl)O2)c(=O)[nH]c1=O (mixture of isomers) | 51 to 61 °C |
| CC(=O)NC(Cc1ccc([N+](=O)[O-])cc1)C(=O)O (stereo not given) | 165 to 166 °C |
| CN(C(=O)Nc1ccccc1C=Cc1cc(C(C)(C)C)c(O)c(C(C)(C)C)c1)C1CCN(Cc2ccc(F)cc2)CC1 | 174 to 175 °C |
| CC(C)(C)c1cc(C(O)c2ccccc2)cc(C(C)(C)C)c1O (stereo not given) | 117 to 119 °C |
| CCC(CC)CNC(=O)c1ccc2cccc(Cc3ccc(C(=O)OC)cc3OC)c2c1 | 130 °C |

Exercise: Param item = `c1ccc(Cn2nc(-c3ccncc3)nc2-c2ccncc2)cc1` ; retrieve measured melting point.
Key: 136 to 138 °C

Exercise: Param item = `Cc1c(C(=O)O)ccc(Cl)c1O` ; retrieve measured melting point.
Key: 191 °C

Exercise: Param item = Nc1ccc(C(CC2CCCC2)C(=O)O)cc1 (stereo not given) ; retrieve measured melting point.
Key: 167 to 169 °C

Exercise: Param item = `Cc1ccc([N+](=O)[O-])c(C#N)c1` ; retrieve measured melting point.
Key: 90 to 91 °C
